Decision: CO2 permeability beneath 6 Barrer gives True; CO2 permeability meeting or exceeding 6 Barrer gives False.

Example results:
- compound: "*Oc1ccc(S(=O)(=O)c2ccc(Oc3ccc(C(C)(C)c4cccc(*)c4)cc3)cc2)cc1 (repeat unit)"
  class_label: "True"
- compound: "*Oc1ccc(Oc2ccc(C(=O)c3ccc(*)cc3)cc2)c(-c2cc(C)cc(C)c2)c1 (repeat unit)"
  class_label: "True"
- compound: "*c1ccc(N(c2ccc(N3C(=O)c4ccc(C(c5ccc6c(c5)C(=O)N(*)C6=O)(C(F)(F)F)C(F)(F)F)cc4C3=O)cc2)c2ccc(N(c3ccc(OC)cc3)c3ccc(OC)cc3)cc2)cc1 (repeat unit)"
  class_label: "False"
- compound: "*c1c(C)cc(Cc2cc(C)c(-n3c(=O)c4cc5c(=O)n(*)c(=O)c5cc4c3=O)c(C)c2)cc1C (repeat unit)"
  class_label: "False"
- compound: "*C(=C(*)c1ccc(C(C)(C)C)cc1)c1ccc(O[Si](C)(C)C(C)(C)C)cc1 (repeat unit)"
  class_label: "False"
- compound: "*N=P(*)(C)c1ccccc1 (repeat unit)"
  class_label: "False"

Consider the record given below.
Prompt: is_below(CO2 permeability, 6 Barrer) for *c1cc2c(cc1C)-c1cc(C)c(N3C(=O)c4ccc(C(c5ccc6c(c5)C(=O)N(*)C6=O)(C(F)(F)F)C(F)(F)F)cc4C3=O)cc1S2(=O)=O (repeat unit) ?
Response: False

###

Reported H2 permeability is given for each of the following molecules.
Kindly answer with a numeric value in Barrer, unit omitted.

For orientation, consider the following solved cases.
- molecule: "*c1ccc(C(c2ccc(N3C(=O)c4ccc(C(c5ccc6c(c5)C(=O)N(*)C6=O)(C(F)(F)F)C(F)(F)F)cc4C3=O)cc2)(C(F)(F)F)C(F)(F)F)cc1 (repeat unit)"
  reported_property: "H2 permeability"
  observed_value: 108
- molecule: "*Oc1c(Br)cc(C(C)(C)c2cc(Br)c(OC(=O)c3cccc(C(*)=O)c3)c(Br)c2)cc1Br (repeat unit)"
  reported_property: "H2 permeability"
  observed_value: 18.1
- molecule: "*c1ccc(Oc2ccc(C(c3ccc(Oc4ccc(N5C(=O)c6ccc(C(=O)c7ccc8c(c7)C(=O)N(*)C8=O)cc6C5=O)cc4)cc3)(C(F)(F)F)C(F)(F)F)cc2)cc1 (repeat unit)"
  reported_property: "H2 permeability"
  observed_value: 16.1
- molecule: "*CC(*)(C)C (repeat unit)"
  reported_property: "H2 permeability"
  observed_value: 13.3
- molecule: "*c1c(C)cc(C)c(N2C(=O)c3ccc(Sc4ccc5c(c4)C(=O)N(*)C5=O)cc3C2=O)c1C (repeat unit)"
  reported_property: "H2 permeability"
  observed_value: 68.6

Now look at this entry.
Prompt: Provide H2 permeability value for the following molecule: *c1ccc(Oc2ccc(N3C(=O)c4ccc(Oc5ccc(C(c6ccc(Oc7ccc8c(c7)C(=O)N(*)C8=O)cc6)(C(F)(F)F)C(F)(F)F)cc5)cc4C3=O)cc2)cc1 (repeat unit)
Response: 8.95

###

Reported log10(CH4 permeability) is given for each of the following compounds.
Recorded CH4 permeability (log10, Barrer)

For orientation, consider the following solved cases.
- compound: "*C(=C(*)c1ccc([Si](C)(C)C)cc1)c1ccc(O[Si](C)(C)C(C)(C)C)cc1 (repeat unit)"
  log10(CH4 permeability): 3.04
- compound: "*Oc1c(C)cc(C(C)(C)c2ccc(C(C)(C)c3cc(C)c(Oc4ccc(S(=O)(=O)c5ccc(*)cc5)cc4)c(C)c3)cc2)cc1C (repeat unit)"
  log10(CH4 permeability): -0.22
- compound: "*c1c(C)c(C)c(N2C(=O)c3cc4c(cc3C2=O)C2(CC(C)(C)c3cc5c(cc32)C(=O)N(*)C5=O)CC4(C)C)c(C)c1C (repeat unit)"
  log10(CH4 permeability): 2.59
- compound: "*c1ccc(-c2ccc(Oc3ccc(C4(c5ccc(Oc6ccc(-c7ccc(N8C(=O)c9ccc(C(=O)c%10ccc%11c(c%10)C(=O)N(*)C%11=O)cc9C8=O)cc7)cc6C(F)(F)F)cc5)c5ccccc5C(=O)N4c4ccccc4)cc3)c(C(F)(F)F)c2)cc1 (repeat unit)"
  log10(CH4 permeability): -0.21
- compound: "*Oc1ccc(C(C)(C)c2ccc(OC(=O)c3cccc(C(*)=O)c3)c(C(C)C)c2)cc1C(C)C (repeat unit)"
  log10(CH4 permeability): -0.52
- compound: "*Oc1ccc(Oc2cccc(*)c2C#N)c(-c2cccc(C(F)(F)F)c2)c1 (repeat unit)"
  log10(CH4 permeability): -1.05

Prompt: Provide log10(CH4 permeability) value for the following compound: *CC(*)C(=O)OCC (repeat unit)
Response: 1.17
